- MEASUREMENT_TARGET: Fuc(a1-2)[Gal(a1-3)]Gal(b1-4)[Fuc(a1-3)]GlcNAc(b1-3)GalNAc
- TEST_NAME: glycan array binding signal (z-score within array); higher = stronger binding
- CONDITION_CONTEXT: glycan notation: IUPAC condensed, linker removed
Shown is part of a subset that was picked to be rich in the strongest signals.
Measured glycan array binding signal (z-score) accompanies every entry in the list below.
Just the number, please.

Known results for binders:
SBD-G4S3-SBD (protein) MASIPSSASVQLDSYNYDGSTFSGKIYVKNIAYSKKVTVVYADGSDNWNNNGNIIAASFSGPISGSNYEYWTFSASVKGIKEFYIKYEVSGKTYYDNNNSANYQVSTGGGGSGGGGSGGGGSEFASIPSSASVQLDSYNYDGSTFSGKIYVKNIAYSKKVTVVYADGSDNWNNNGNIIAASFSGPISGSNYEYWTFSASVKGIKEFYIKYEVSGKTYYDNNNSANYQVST
0.033
CV-2L (Chromobacterium violaceum), Q7NX84 (protein) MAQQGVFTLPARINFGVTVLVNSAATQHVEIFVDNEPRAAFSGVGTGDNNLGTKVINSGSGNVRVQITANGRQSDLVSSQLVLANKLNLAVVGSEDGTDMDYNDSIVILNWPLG
-0.294

So what's the measured glycan array binding signal (z-score) for this one? HA-61200 (Pseudomonas aeruginosa), Q02SP8_PSEAB (protein) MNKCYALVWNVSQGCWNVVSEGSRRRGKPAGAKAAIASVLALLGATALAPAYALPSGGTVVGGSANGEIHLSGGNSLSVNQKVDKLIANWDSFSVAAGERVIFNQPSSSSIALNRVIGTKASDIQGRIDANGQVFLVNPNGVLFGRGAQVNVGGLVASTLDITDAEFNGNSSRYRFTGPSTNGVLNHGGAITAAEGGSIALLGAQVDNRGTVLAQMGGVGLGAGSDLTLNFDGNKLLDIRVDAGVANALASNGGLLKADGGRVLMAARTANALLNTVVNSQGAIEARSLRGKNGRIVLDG
1.01

Data request, read-out glycan array binding signal (z-score), for Clone730PsrP (Streptococcus pneumoniae) (protein) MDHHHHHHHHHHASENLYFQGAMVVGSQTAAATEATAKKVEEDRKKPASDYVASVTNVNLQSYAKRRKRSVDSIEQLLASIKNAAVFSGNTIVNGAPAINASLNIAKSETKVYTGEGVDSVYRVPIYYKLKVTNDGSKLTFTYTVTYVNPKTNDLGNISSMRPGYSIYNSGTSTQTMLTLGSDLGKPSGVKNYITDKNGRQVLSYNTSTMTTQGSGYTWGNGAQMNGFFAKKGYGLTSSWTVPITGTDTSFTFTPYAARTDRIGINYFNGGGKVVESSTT
-0.513
